Readings of pre-steady-state target cleavage rate for the listed sequences
System: MILI (PIWIL2) piRISC loaded with piRNA #1 (26 nt);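 also: 1 nM active piRISC with 0.1 nM target library at 33 °C single turnover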
Assay: pre-steady-state target cleavage rate (min^-1); guide: piRNA #1 5'p-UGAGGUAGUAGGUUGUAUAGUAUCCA; MIWI and MILI are mouse PIWI proteins and EfPiwi is from a freshwater sponge; tags in brackets are library labels; higher = faster piRNA-guided slicing of the target
Conditions: auxiliary factor: 500 nM mouse GTSF1

- sequenceData: "GGAGAGGAUACUAUACAAGCUACUAGCUCA"
  pre-steady-state target cleavage rate: 0.0601
- sequenceData: "GGAGACCUAUGUAUACAACCUACUACCUACA"
  pre-steady-state target cleavage rate: 0.0588
- sequenceData: "GGAGACCUUACUUAUACAACCUACUACCUCA"
  pre-steady-state target cleavage rate: 0.0994
- sequenceData: "GGAGACCUUACUAUACAACCUGCUACCUCA"
  pre-steady-state target cleavage rate: 0.0466
- sequenceData: "GGAGACCUUACUAUCAACCUACUACCUCA"
  pre-steady-state target cleavage rate: 0.0728
- sequenceData: "GGAGACGAUACUAUACAUCCUACAACCUCA"
  pre-steady-state target cleavage rate: 0.287
- sequenceData: "GGAGACCUUACUAUACAACCUACUAGCCUCA"
  pre-steady-state target cleavage rate: 0.181
- sequenceData: "GGAGACCUAUCUAUACAACCUACUCACCUCA"
  pre-steady-state target cleavage rate: 0.0886
- sequenceData: "GGAGACCUAUGAUAUGUACCUACUGACCUCA"
  pre-steady-state target cleavage rate: "< 0.0001"
- sequenceData: "GGAGACCAUACUAUACAACCUACUACGCUCA"
  pre-steady-state target cleavage rate: 0.219
- sequenceData: "GGAGACGAUACUAUAAAACCUACUACCUCA"
  pre-steady-state target cleavage rate: 0.184
- sequenceData: "GGAGUGGAAACUAUUCAACCUACUACCUCA"
  pre-steady-state target cleavage rate: 0.192
- sequenceData: "GGAGACCUAUGUAUAACAACCUACUACCUCA"
  pre-steady-state target cleavage rate: 0.0151
- sequenceData: "GGAGACCAUACUAUUGUACCUACUACCUCA"
  pre-steady-state target cleavage rate: 0.0647
- sequenceData: "GGAGACCAUACUAUACAACCUACUACCUCCA"
  pre-steady-state target cleavage rate: 0.137
- sequenceData: "GGAGAGGAUACUUUACAACCUACUACGUCA"
  pre-steady-state target cleavage rate: 0.0429
- sequenceData: "GGAGACCUAUGUAUUCAAGCUACUACCUCA"
  pre-steady-state target cleavage rate: 0.109
- sequenceData: "GGAGACCUAUGUAUACAACCUACAACGUCA"
  pre-steady-state target cleavage rate: 0.00278
- sequenceData: "GGAGACCUAUGUAUACAACCUAGUACCUCA"
  pre-steady-state target cleavage rate: 0.00921
- sequenceData: "GGAGACCUAUGUAUACAACCUACUACUCA"
  pre-steady-state target cleavage rate: 0.063
- sequenceData: "GGAGUCGAUACUAUACAACCUACUACGUCA"
  pre-steady-state target cleavage rate: 0.0797
- sequenceData: "GGAGACGAUACUAUACAACCAUCUACCUCA"
  pre-steady-state target cleavage rate: 0.00466
- sequenceData: "GGAGAGGAUACUAUACAACCUACUUGCUCA"
  pre-steady-state target cleavage rate: 0.00476
- sequenceData: "GGAGACCUAUGAAUACAACCUUCUACCUCA"
  pre-steady-state target cleavage rate: 0.00275
- sequenceData: "GGAGACCUAUGAAUACAACCUAGUACCUGA"
  pre-steady-state target cleavage rate: "< 0.0001"
